Form field: polymerase ribozyme fitness (log ratio) (one value per entry).
B1: TPR 5TU (parent)
chain: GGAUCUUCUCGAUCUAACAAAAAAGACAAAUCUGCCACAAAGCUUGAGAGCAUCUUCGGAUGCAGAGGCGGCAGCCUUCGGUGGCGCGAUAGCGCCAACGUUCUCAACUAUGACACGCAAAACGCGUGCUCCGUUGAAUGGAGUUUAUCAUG

variants of: B1; test: polymerase ribozyme fitness, log enrichment relative to wild type (log ratio); higher = more active; in vitro selection for triplet polymerase activity
Variants at the floor of the assay were thinned out.

Below are worked cases with known answers.
Input: Reported polymerase ribozyme fitness (log ratio) for U82G U104C C116U C125U A138C : what is it?
Output: ≤ -4.2

Input: Reported polymerase ribozyme fitness (log ratio) for C10U U13C A37C G70A C79A G84A A107C : what is it?
Output: ≤ -4.2

Input: Reported polymerase ribozyme fitness (log ratio) for U4G C76U G84A C95U U111G : what is it?
Output: ≤ -4.2

Input: Reported polymerase ribozyme fitness (log ratio) for C10G U31A U44C C57A G59U U61G G92C A107U : what is it?
Output: ≤ -4.2

Input: Reported polymerase ribozyme fitness (log ratio) for U7G A23G : what is it?
Output: ≤ -4.2

Input: Reported polymerase ribozyme fitness (log ratio) for U33G C54A G86A C87G A119U A122U G143C A147C : what is it?
Output: ≤ -4.2

Input: Reported polymerase ribozyme fitness (log ratio) for A30U U44A C85A A110C U111C : what is it?
Output: ≤ -4.2

Input: Reported polymerase ribozyme fitness (log ratio) for C10G A20G A138G U144A U145A : what is it?
Output: ≤ -4.2

Input: Reported polymerase ribozyme fitness (log ratio) for A40U A41U A49U G59A C87G U146G : what is it?
Output: ≤ -4.2

Input: Reported polymerase ribozyme fitness (log ratio) for A47G A49U G50C C57U A107C A150C : what is it?
Output: ≤ -4.2

New cases:
Input: Reported polymerase ribozyme fitness (log ratio) for G48A C85U A97U U130C A150U : what is it?
Output: ≤ -4.2

Input: Reported polymerase ribozyme fitness (log ratio) for U4G A19G A23G G59U A66U G141C : what is it?
Output: ≤ -4.2

Input: Reported polymerase ribozyme fitness (log ratio) for A17G C35A A40C G67U C96A C129G : what is it?
Output: ≤ -4.2
